B1: CPEB3 Ribozyme (parent)
chain: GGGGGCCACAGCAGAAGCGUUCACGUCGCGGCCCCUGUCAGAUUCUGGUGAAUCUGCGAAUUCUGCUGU

Variants of: B1
Assay: self-cleavage, relative activity (ratio to wild type); higher = more cleavage; co-transcriptional
The following variants are listed with their measured self-cleavage values.
API note: the answer field is a bare number with no unit suffix.

Suppose we examine the variant G11U C66A ; what self-cleavage value has been reported?
0.918

Next record, please: U21G A51C
0.509

Next record, please: G48U A52G
0.983

Next record, please: C29U C32G
0.165

Next record, please: G4U U38A
0.73
